test system: AsPC-1 cells; experiment: Non-anchorage-dependent cell growth inhibition (spheroid 3D culture), AsPC-1; type: cell-based; details: Homo sapiens, ASPC1, 144 h; KRAS G12D mutant-positive, 3D spheroid, six days, CellTiter-Glo 2.0; read-out: AsPC-1 IC50
Reported IC50 values for a set of molecules

[
  {
    "Molecule": "CO[C@@H](C)COc1nc(NC2CN(C(=O)O[C@H]3C[C@@H](N(C)C)C3)C2)c2cc(C3CC3)c(-c3c(C)c(F)cc4[nH]ncc34)c(OCc3ccc(-c4cn([C@H](C(=O)N5C[C@H](O)C[C@H]5C(=O)N[C@@H](CO)c5ccc(-c6ocnc6C)cc5)C(C)C)nn4)cc3)c2n1 (atropisomer, axis not shown; (M)) [Example 1]",
    "Target Or System": "AsPC-1 cells",
    "Data Value": "28 nM"
  },
  {
    "Molecule": "COC(C)(C)COc1cc(OC2CN(C(=O)N3CC(CN(C)C)C3)C2)c2cc(C3CC3)c(-c3c(C)c(F)cc4[nH]ncc34)c(OCc3ccc(-c4cn([C@H](C(=O)N5C[C@H](O)C[C@H]5C(=O)N[C@@H](CO)c5ccc(-n6cncn6)cc5)C(C)C)nn4)cc3)c2n1 (atropisomer, axis not shown) [Example 9]",
    "Target Or System": "AsPC-1 cells",
    "Data Value": "19 nM"
  },
  {
    "Molecule": "CO[C@@H](C)COc1nc(N2CC(C#N)C2)c2cc(C3CC3)c(-c3c(C)c(F)cc4[nH]ncc34)c(OCc3ccc(-c4cn([C@H](C(=O)N5C[C@H](O)C[C@H]5C(=O)N[C@@H](CO)c5ccc(-c6scnc6C)cc5)C(C)C)nn4)cc3)c2n1 (atropisomer, axis not shown) [Example 20]",
    "Target Or System": "AsPC-1 cells",
    "Data Value": "68 nM"
  }
]

Proceeding to the next molecule to report its IC50.
In: Query for AsPC-1 cells: what IC50 does the record show for Cc1ncsc1-c1ccc([C@H](CO)NC(=O)[C@@H]2C[C@@H](O)CN2C(=O)[C@H](C(C)C)n2cc(-c3ccc(COc4c(-c5c(C)c(F)cc6[nH]ncc56)c(C5CC5)cc5c(N6CC[C@H]6C(N)=O)nc(OC6CCOCC6)nc45)cc3)nn2)cc1 [Example 35] ?
Out: 10 nM

---

tested on: PA-TU-8902 cells; assay: Non-anchorage-dependent cell growth inhibition (spheroid 3D culture), PA-TU-8902; type: cell-based, human; details: Homo sapiens, PaTu 8902, 144 h; KRAS G12V mutant-positive, 3D spheroid, six days, CellTiter-Glo 2.0; read-out: PA-TU-8902 IC50
Measurement Name: pIC50
pIC50 here: minus log base 10 of the concentration, concentration in moles per litre.

[
  {
    "Compound": "Cc1ncsc1-c1ccc([C@H](CO)NC(=O)[C@@H]2C[C@@H](O)CN2C(=O)[C@H](C(C)C)n2cc(-c3ccc(COc4c(-c5c(C)c(F)cc6[nH]ncc56)c(C5CC5)cc5c(NCc6cccnc6)nc(OC6CCOCC6)nc45)cc3)nn2)cc1",
    "pIC50": 7.20
  },
  {
    "Compound": "CO[C@@H](C)COc1nc(N2CC[C@H]2C(N)=O)c2cc(C3CC3)c(-c3c(C)c(F)cc4[nH]ncc34)c(OCc3ccc(-c4cn([C@H](C(=O)N5C[C@H](O)C[C@H]5C(=O)N[C@@H](CN(C)C)c5ccc(-c6scnc6C)cc5)C(C)C)nn4)cc3)c2n1 (atropisomer, axis not shown)",
    "pIC50": 7.11
  },
  {
    "Compound": "CO[C@@H](C)COc1cc(OC2CN(C(=O)NCCN(C)C)C2)c2cc(C3CC3)c(-c3c(C)c(F)cc4[nH]ncc34)c(OCc3ccc(-c4cn([C@H](C(=O)N5C[C@H](O)C[C@H]5C(=O)N[C@@H](CO)c5ccc(-n6cncn6)cc5)C(C)C)nn4)cc3)c2n1 (atropisomer, axis not shown; (M))",
    "pIC50": 7.44
  },
  {
    "Compound": "CO[C@@H](C)COc1nc(NC2CN(C(=O)O[C@H]3C[C@@H](N(C)C)C3)C2)c2cc(C3CC3)c(-c3c(C)c(F)cc4[nH]ncc34)c(OCc3ccc(-c4cn([C@H](C(=O)N5C[C@H](O)C[C@H]5C(=O)N[C@@H](CO)c5ccc(N6CCOC6=O)cc5)C(C)C)nn4)cc3)c2n1 (atropisomer, axis not shown)",
    "pIC50": 7.14
  },
  {
    "Compound": "CO[C@@H](C)COc1nc(NC2CN(C(=O)O[C@H]3C[C@@H](N(C)C)C3)C2)c2cc(C3CC3)c(-c3c(C)c(F)cc4[nH]ncc34)c(OCc3ccc(-c4cn([C@H](C(=O)N5C[C@H](O)C[C@H]5C(=O)N[C@@H](CO)c5ccc(-c6scnc6C)cc5)C(C)C)nn4)cc3)c2n1 (atropisomer, axis not shown; (M))",
    "pIC50": 7.35
  },
  {
    "Compound": "CO[C@@H](C)COc1nc(N2CCOCC2)c2cc(C3CC3)c(-c3c(C)c(F)cc4[nH]ncc34)c(OCc3ccc(-c4cn([C@H](C(=O)N5C[C@H](O)C[C@H]5C(=O)N[C@@H](CO)c5ccc(-c6scnc6C)cc5)C(C)C)nn4)cc3)c2n1 (atropisomer, axis not shown)",
    "pIC50": 7.22
  }
]

In: Look up pIC50 for this compound: CO[C@@H](C)COc1cc(OC2CN(C(=O)CCCN(C)C)C2)c2cc(C3CC3)c(-c3c(C)c(F)cc4[nH]ncc34)c(OCc3ccc(-c4cn([C@H](C(=O)N5C[C@H](O)C[C@H]5C(=O)N[C@@H](CO)c5ccc(-n6cncn6)cc5)C(C)C)nn4)cc3)c2n1 (atropisomer, axis not shown; (M))
Out: 7.28

In: Look up pIC50 for this compound: CO[C@@H](C)COc1cc(OC2CN(C(=O)N3CC[C@@H](N(C)C)C3)C2)c2cc(C3CC3)c(-c3c(C)c(F)cc4[nH]ncc34)c(OCc3ccc(-c4cn([C@H](C(=O)N5C[C@H](O)C[C@H]5C(=O)N[C@@H](CO)c5ccc(-n6cncn6)cc5)C(C)C)nn4)cc3)c2n1 (atropisomer, axis not shown)
Out: 7.09

Data origin, for the record: patent US20260049072A1
